study system: Phosphotyrosine-protein phosphatase PTPB (Mycobacterium tuberculosis)
Sequence (P96830 whole entry): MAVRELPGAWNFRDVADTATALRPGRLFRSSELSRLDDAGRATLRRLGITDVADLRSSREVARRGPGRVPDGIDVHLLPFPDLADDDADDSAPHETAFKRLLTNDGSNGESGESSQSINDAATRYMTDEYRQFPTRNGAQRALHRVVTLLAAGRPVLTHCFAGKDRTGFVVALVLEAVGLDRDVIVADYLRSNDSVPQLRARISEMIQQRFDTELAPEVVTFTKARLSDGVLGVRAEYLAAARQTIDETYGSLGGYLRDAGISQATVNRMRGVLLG
procedure details: Inhibition of Mycobacterium tuberculosis PTPB expressed in Escherichia coli BL21 (DE3) in presence of BSA by PAINS assay
recorded metric: pIC50
// returns pIC50 (minus log10 of molar concentration), number only

Data request, read-out pIC50, for `O=C(O)C(=O)/C(=C/c1ccccc1C(F)(F)F)c1ccc2ccccc2n1`
4.29
